Please go through the items and note down their GI50.
# System: RPMI-8226
# Assay summary: NCI tumour cell line growth inhibition, 48 h
Calls of active or inactive are those of the source. Rule as the data show it: active = GI50 up to about 1.1 µM and inactive = higher.

// query Identify the measured GI50 of COc1ccc(OCc2nc3cc(C(F)(F)F)ccc3nc2-c2ccccc2)cc1 for RPMI-8226.
// result > 100 µM (inactive)

// query Identify the measured GI50 of N#Cc1ccc(C2OCC3CC=CCC3CO2)cc1 (centres undefined) for RPMI-8226.
// result 42.2 µM (inactive)

// query Identify the measured GI50 of O=C(CN1CCNCCN(CC(=O)N2CCCCC2)CCNCC1)N1CCCCC1 for RPMI-8226.
// result > 100 µM (inactive)

// query Identify the measured GI50 of CCn1c(=O)c2c(=O)[nH][nH]c2c2ccccc21 for RPMI-8226.
// result > 100 µM (inactive)

// query Identify the measured GI50 of COc1ccc(C2NCCc3c2[nH]c2ccccc32)cc1 (centres undefined) for RPMI-8226.
// result > 100 µM (inactive)

// query Identify the measured GI50 of CC1CCc2c(sc3ncnc(N/N=C/c4ccc(Cl)cc4)c23)C1 (centres undefined) for RPMI-8226.
// result 29.9 µM (inactive)

// query Identify the measured GI50 of CC1=CC(=O)CCC2(C)C1CC[C@@H]2OC=O (some centres undefined) for RPMI-8226.
// result > 100 µM (inactive)

// query Identify the measured GI50 of CC(C)(C)OC(=O)N1C(=O)OC[C@@H]2C=C[C@@H]21 for RPMI-8226.
// result > 100 µM (inactive)

// query Identify the measured GI50 of COP1(=S)OCC2CCC[C@@H]2O1 (some centres undefined) for RPMI-8226.
// result > 100 µM (inactive)

// query Identify the measured GI50 of O=c1[nH]nc(-c2ccccc2)n1/N=C/c1cccc([N+](=O)[O-])c1 for RPMI-8226.
// result > 100 µM (inactive)

// query Identify the measured GI50 of COC(=O)CCC1CCc2c(OC)ccc(O)c2C1=O (centres undefined) for RPMI-8226.
// result > 100 µM (inactive)

// query Identify the measured GI50 of O=C(Nc1c(-c2nc3ccccc3[nH]2)sc(=S)n1-c1ccccc1)c1ccccc1 for RPMI-8226.
// result > 100 µM (inactive)

// query Identify the measured GI50 of CCN(CC)CCOc1ccc(N2C(=O)c3cc(OC)c(OC)cc3C2=O)cc1 for RPMI-8226.
// result > 100 µM (inactive)

// query Identify the measured GI50 of COc1ccc(N[S+]([O-])c2ccccc2OC)cc1 (centres undefined) for RPMI-8226.
// result 18.7 µM (inactive)
